Reference for the values: paper PMC12567398

- Tested on: HCMV Merlin-GFP
- test_method_notes: HCMV time-of-addition reporter assay in HFFs, Merlin-GFP
- condition_description: read-out: Merlin-GFP EC50, drug addition 2 d p.i., readout 7 d p.i.
recorded_metric: EC50 (nM)
Response body: numeric value in nM, unit text excluded.

## Task Given Cn1ncc2cc(-c3cnc(N)c(Cl)c3N3CCC4(CCNC4=O)CC3)ccc21 [CCT-251921] , state its recorded EC50.
## Result 3.4

---

- Tested on: vaccinia virus VV IHD-5
- test_method_notes: microbe, parasite or virus in culture
- Assay type: cell-based
- condition_description: Orthopoxvirus vaccinia, 48 h, read-out: Antiviral mean EC50 based on luciferase measurements
recorded_metric: EC50 (µM)
Field format: number, assumed µM, no unit text.

## Task I am curious: what EC50 value has been reported for `CCCCCCCCCCCCCCCCOCCCOP(=O)(O)CO[C@H](CO)Cn1ccc(N)nc1=O` ?
## Result 1.9
